Could you please report measured TGI for the items listed next?
- System: OVCAR-3 ovarian
- EXPERIMENT DESCRIPTION: NCI tumour cell line growth inhibition, 48 h

Consider `CC(=O)[CH-]C(=O)c1ccccc1.CC(=O)[CH-]C(=O)c1ccccc1.CC(=O)[CH-]C(=O)c1ccccc1.[Cl-].[Hf+4]` . Its measured TGI is > 100 µM

Consider `CC(=O)Nc1ccc2cc(C#N)c(=O)[nH]c2n1` . Its measured TGI is > 100 µM

Consider CC1CN1c1c(C(=O)/C=C/c2ccc(F)cc2)c(-c2ccccc2)nn(C)c1=O (centres undefined) . Its measured TGI is 28.9 µM

Consider `CCOC(=O)/C1=C(\C)N(Cc2ccccc2)C(=O)c2ccccc2C(=O)c2c(OC(C)=O)ccc(OC(C)=O)c21` . Its measured TGI is 80.9 µM

Consider `Cc1c(N)c(C#N)c2n(C)c3ncccc3n2c1=O` . Its measured TGI is > 100 µM

Consider [N-]=[N+]=NC1(Cc2ccccc2)C(=O)Nc2ccccc2C1=O (centres undefined) . Its measured TGI is > 100 µM

Consider `Cc1c(C(=O)/C=C/c2ccc([N+](=O)[O-])cc2)[n+](=O)c2ccccc2n1[O-]` . Its measured TGI is > 100 µM

Consider CCCCCCCCCCCCCCCC(=O)OCC1OC(OCCCC)[C@H](O[C@@H]2OC(C)C(OC(=O)CCC)C(O)C2O)C(O)C1O (some centres undefined) . Its measured TGI is 29.6 µM

Consider `Cc1cc2c(cc1Cl)SC(NNC(=O)c1ccccc1)=NS2(=O)=O` . Its measured TGI is > 10 µM

* * *

- Test system: HCT-116 colon
- EXPERIMENT DESCRIPTION: NCI tumour cell line growth inhibition, 48 h
Could you please report measured TGI for the items listed next?
Hi! Could you send only the number? It should be in µM, unit omitted.

Consider `COC1=CC(=O)C2=C(C1=O)[C@H]1CC[C@]3(C)C(=O)CC[C@H]3[C@@H]1CC2` . Its measured TGI is 34.1

Consider `C=CCc1cc(O)ccc1O` . Its measured TGI is 31.1

Consider NNC(=O)N/N=C(/CC1(O)C(=O)Nc2ccc(Br)cc21)c1ccccc1 (stereo not drawn) . Its measured TGI is 72.6

Consider `N#C/C(=C\c1ccc(O)c(O)c1)C(=O)NCc1cccc(C(F)(F)F)c1` . Its measured TGI is 17.4

Consider `C=CC(=O)C#Cc1cnc(OC)nc1OC` . Its measured TGI is 26.1

Consider `Oc1c(Cl)cc(Cl)c(Cl)c1Cc1c(O)c(Cl)cc(Cl)c1Cl` . Its measured TGI is 10.2

Consider `O=C1NC(=S)NC(=O)C1=Cc1ccc([N+](=O)[O-])o1` . Its measured TGI is 34

Consider `COc1cc(C(=O)/C=C/c2cccnc2Nc2ccc(Cl)cc2)cc(OC)c1OC` . Its measured TGI is 1.84

Consider `COC(=O)NCCc1[nH]nc2c1C(=O)C=C(Nc1ccccc1OC)C2=O` . Its measured TGI is 38.1

Consider N#CC(Cl)CS(=O)(=O)c1ccccc1 (stereo not drawn) . Its measured TGI is 12.2

Consider `CCN(CC)CCC(=O)c1ccc(Cl)c(Cl)c1` . Its measured TGI is 68.3

Consider C/C=C(/C)C(=O)OC1C=C(CO)C(=O)C(OC(=O)C2(C)OC2C)C1C(C)C (stereo not drawn) . Its measured TGI is 2.48

Consider `O=C(CCl)N1CCN(c2ccccc2)CC1` . Its measured TGI is 35.5

Consider `Nc1ccc(C2(c3ccc(N)cc3)C3CC4CC(C3)CC2C4)cc1` . Its measured TGI is 42.1

Consider C[C@H]1[C@H]2[C@H](C[C@@]3(C)C4=CC[C@H]5C(C)(C)[C@@H](OC6OCC(O)C(O)C6O)CC[C@@]56C[C@@]46CC[C@]23C)O[C@@]2(O)[C@@H]1OC(C)(C)[C@H]2O (stereo partly drawn) . Its measured TGI is 4.21

Consider CC(NC1=NCCO1)c1ccsc1 (stereo not drawn) . Its measured TGI is 34.1

Consider CC[C@]1(O)CC2CN(CCc3c([nH]c4ccccc34)C(C(=O)OC)(c3cc4c(cc3OC)N(C=O)[C@H]3[C@@](O)(C(=O)OC)[C@H](OC(C)=O)[C@]5(CC)[C@@H]6C[C@@H]6CN6CC[C@]43[C@@H]65)C2)C1 (stereo partly drawn) . Its measured TGI is 0.00352

Consider `Cc1cc(NS(=O)(=O)c2ccc(-c3cnc(C4CC4)o3)cc2)ccc1Cl` . Its measured TGI is 13.4

* * *

- Test system: OVCAR-5 ovarian
- EXPERIMENT DESCRIPTION: NCI tumour cell line growth inhibition, 48 h
Could you please report measured TGI for the items listed next?
Hi! Could you send only the number? It should be in µM, unit omitted.

Consider `C=C(CN(C)C)C(=O)c1ccccc1` . Its measured TGI is 30.4

Consider `COC1=CC(=O)C2=C(C1=O)[C@H]1CC[C@]3(C)C(=O)CC[C@H]3[C@@H]1CC2` . Its measured TGI is 44.6

Consider `Nc1nc(N)c2c(Cl)c(CNc3ccc(Cl)c(Cl)c3)ccc2n1` . Its measured TGI is 12.1

Consider CC1CCC2C(C)C(OC(=O)CCC(=O)O)OC3OC4(C)CCC1C32OO4 (configuration not stated) . Its measured TGI is 57.8

Consider COc1ccc(C[C@@H]2OC3(C=CC(=O)CC3Sc3ccccc3)O[C@H]2Cc2ccc(OC)cc2)cc1 (some centres not stated) . Its measured TGI is 2.58

* * *

- System: NCI-H522 lung
- EXPERIMENT DESCRIPTION: NCI tumour cell line growth inhibition, 48 h; in the data active = GI50 below about 0.43 µM; inactive = the rest
Tick one outcome: Yes = active, No = inactive

What call does the record list for `CCN(CC)CCOc1ccc(/C(=C(\C)Cc2ccc(OC)cc2)c2ccc(O)cc2)cc1` ? No

What call does the record list for `Cc1cc2c(C(C)C)c(O)c(O)c(/C=N/O)c2c(O)c1-c1c(C)cc2c(C(C)C)c(O)c(O)c(/C=N/O)c2c1O` ? No

What call does the record list for `Cc1ccc(/C=C(/C#N)n2nnc3cccc(F)c32)cc1` ? Yes

What call does the record list for `O=C1NC(=NCCc2ccccc2F)S/C1=C\c1ccc2ncccc2c1` ? No

What call does the record list for `CN1CCN(CCCCCOc2cc(O)c3c(=O)cc(-c4ccccc4)oc3c2)CC1` ? No

What call does the record list for `N#C/C(=C\c1ccc(O)c(O)c1)C(=O)NCc1cccc(C(F)(F)F)c1` ? No

What call does the record list for CC[C@]1(O)CC2CN(CCc3c([nH]c4ccccc34)C(C(=O)OC)(c3cc4c(cc3OC)N(C=O)[C@H]3[C@@](O)(C(=O)OC)[C@H](OC(C)=O)[C@]5(CC)[C@@H]6C[C@@H]6CN6CC[C@]43[C@@H]65)C2)C1 (stereo not given in full) ? Yes

What call does the record list for `c1ccc(C2=Nc3ccccc3N3CNN=C23)cc1` ? No

What call does the record list for `CN1CCC(=C(c2ccc(Cl)cc2)c2ccccn2)CC1` ? No

What call does the record list for `Cc1cc(NS(=O)(=O)c2ccc(-c3cnc(C4CC4)o3)cc2)ccc1Cl` ? Yes

What call does the record list for `COc1ccc(/C=C/C(=O)C(=O)/C=C/c2ccc(OC)c(OC)c2)cc1OC` ? No

What call does the record list for `CC[C@@]1(O)C(=O)OCc2c1cc1n(c2=O)Cc2cc3cc(O)ccc3nc2-1` ? Yes

What call does the record list for CC(=O)CCC[C@@H](C)[C@@H]1O[C@H]([C@@]2(C)CCC(=O)O2)CC2[C@H]1OC(=O)C21CC1 (stereo not given in full) ? No

What call does the record list for `CCN(CC)Cc1cc(Nc2ccnc3ccc(OC)cc23)ccc1O` ? No

What call does the record list for CCCCCCCCCCCCCCCC(=O)OCC1OC(OCCCC)[C@H](O[C@@H]2OC(C)C(OC(=O)CCC)C(O)C2O)C(O)C1O (stereo not given in full) ? No

* * *

- Test system: ACHN renal
- EXPERIMENT DESCRIPTION: NCI tumour cell line growth inhibition, 48 h
Could you please report measured TGI for the items listed next?

ACHN renal assay, compound `CCOC(=O)/C1=C(\C)N(Cc2ccccc2)C(=O)c2ccccc2C(=O)c2c(OC(C)=O)ccc(OC(C)=O)c21` , recorded TGI = > 100 µM

ACHN renal assay, compound `COC(=O)NC1=Nc2ccccc2C(=O)NN1` , recorded TGI = > 100 µM

ACHN renal assay, compound CC(NC1=NCCO1)c1ccsc1 (stereo unspecified) , recorded TGI = > 100 µM

ACHN renal assay, compound COC(=O)C1=C(C)N(NC(N)=O)C2(N)N(NC(N)=O)C(C)=C(C(=O)OC)C12C#N (stereo unspecified) , recorded TGI = > 100 µM

ACHN renal assay, compound `CCN(CC)Cc1cc(Nc2ccnc3ccc(OC)cc23)ccc1O` , recorded TGI = 9.5 µM

ACHN renal assay, compound `O=c1[nH]c(-c2ccccc2)nc2cc([N+](=O)[O-])c(/C(Cl)=C/c3ccccc3)cc12` , recorded TGI = > 100 µM

Where do these numbers come from? They come from PubChem BioAssay (NCI).
